Assay: In vivo oral bioavailability assay in rats
Conditions: male, Sprague-Dawley, plasma, other: intravenous and oral (summary over both arms); rat, route not specified; read-out: half-life (converted)
Description: The compound PCMI-08 was synthesized and detected according to the methods provided in the present invention. The internal standard, paclitaxel, was purchased from China's National Institute for the Control of Pharmaceutical and Biological Products (NICPBP). Chromatography-grade acetonitrile was purchased from Sigma-Aldrich Inc. Tween 80 and ethyl acetate were purchased from Aladdin reagent Inc. Male S.D. rats were purchased from Beijing Weitonglihua Inc. and raised in animal house for two weeks. […]
value-type: half-life

- molecule: "CO[C@H]1C[C@H]2OC[C@@]2(OC(C)=O)[C@H]2[C@H](OC(=O)c3ccccc3)[C@]34OC(=O)O[C@H]3[C@H](OC(=O)[C@H](O)[C@@H](NC(=O)OC(C)(C)C)c3ccccc3)C(C)=C([C@@H](OC(=O)N(C)C)C(=O)[C@]12C)C4(C)C [PCMI-08]"
  value-type: "half-life"
  result: "~10 h"

Where do these numbers come from? They come from patent US9890175B2.
